Source listed as patent US7045528B2.

target: FGF-R1 (Homo sapiens, UniProt P11362, C488A/C584S/L457V); construct: starting from the endogenous methionine residue 456 to glutamate 766; made in house; host or cells: baculovirus vector expression system; assay: FGF-R spectrophotometric assay; assay type: biochemical; details: percent inhibition at 100 nM; library amides from Example 101 (R101), crude mixtures in DMSO
Sequence (P11362 456-766 L457V/C488A/C584S): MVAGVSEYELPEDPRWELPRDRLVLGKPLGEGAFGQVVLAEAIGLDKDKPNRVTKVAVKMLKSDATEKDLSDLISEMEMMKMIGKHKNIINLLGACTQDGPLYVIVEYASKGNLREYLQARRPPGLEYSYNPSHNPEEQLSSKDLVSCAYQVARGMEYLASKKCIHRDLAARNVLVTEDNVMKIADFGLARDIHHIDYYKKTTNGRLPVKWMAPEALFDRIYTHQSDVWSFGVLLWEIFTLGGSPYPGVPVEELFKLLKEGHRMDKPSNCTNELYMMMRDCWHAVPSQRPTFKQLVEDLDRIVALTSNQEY
Entries and their inhibition at 0.1 µM values follow.

{"MOLECULE": "Cc1oc2cc(Oc3ccnc4ccsc34)ccc2c1C(=O)Nc1cc(C(C)(C)C)[nH]n1", "TEST_SYSTEM": "FGF-R1 (Homo sapiens, UniProt P11362, C488A/C584S/L457V)", "VALUE_UNIT": "%", "inhibition at 0.1 µM": 56}
{"MOLECULE": "Cc1cc(NC(=O)c2c(C)oc3cc(Oc4ccnc5ccsc45)ccc23)n[nH]1 [drawing 331]", "TEST_SYSTEM": "FGF-R1 (Homo sapiens, UniProt P11362, C488A/C584S/L457V)", "VALUE_UNIT": "%", "inhibition at 0.1 µM": 4}
{"MOLECULE": "Cc1oc2cc(Oc3ccnc4ccsc34)ccc2c1C(=O)Nc1ccc(N2CCOCC2)nc1 [drawing 369]", "TEST_SYSTEM": "FGF-R1 (Homo sapiens, UniProt P11362, C488A/C584S/L457V)", "VALUE_UNIT": "%", "inhibition at 0.1 µM": 0}
{"MOLECULE": "Cc1cc(C)c(O)c(NC(=O)c2c(C)oc3cc(Oc4ccnc5ccsc45)ccc23)c1", "TEST_SYSTEM": "FGF-R1 (Homo sapiens, UniProt P11362, C488A/C584S/L457V)", "VALUE_UNIT": "%", "inhibition at 0.1 µM": 13}
{"MOLECULE": "Cc1ccc(NC(=O)c2c(C)oc3cc(Oc4ccnc5ccsc45)ccc23)c(O)c1", "TEST_SYSTEM": "FGF-R1 (Homo sapiens, UniProt P11362, C488A/C584S/L457V)", "VALUE_UNIT": "%", "inhibition at 0.1 µM": 0}
{"MOLECULE": "Cc1oc2cc(Oc3ccnc4ccsc34)ccc2c1C(=O)Nc1ccc2cn[nH]c2c1", "TEST_SYSTEM": "FGF-R1 (Homo sapiens, UniProt P11362, C488A/C584S/L457V)", "VALUE_UNIT": "%", "inhibition at 0.1 µM": 0}
{"MOLECULE": "Cc1oc2cc(Oc3ccnc4ccsc34)ccc2c1C(=O)Nc1ccc2[nH]ncc2c1", "TEST_SYSTEM": "FGF-R1 (Homo sapiens, UniProt P11362, C488A/C584S/L457V)", "VALUE_UNIT": "%", "inhibition at 0.1 µM": 0}
{"MOLECULE": "Cc1oc2cc(Oc3ccnc4ccsc34)ccc2c1C(=O)NCC(c1ccc[nH]1)C(F)(F)F (stereo not shown)", "TEST_SYSTEM": "FGF-R1 (Homo sapiens, UniProt P11362, C488A/C584S/L457V)", "VALUE_UNIT": "%", "inhibition at 0.1 µM": 3}
{"MOLECULE": "Cc1oc2cc(Oc3ccnc4ccsc34)ccc2c1C(=O)NCCOC(C)C [drawing 361]", "TEST_SYSTEM": "FGF-R1 (Homo sapiens, UniProt P11362, C488A/C584S/L457V)", "VALUE_UNIT": "%", "inhibition at 0.1 µM": 0}
{"MOLECULE": "Cc1oc2cc(Oc3ccnc4ccsc34)ccc2c1C(=O)Nc1nccs1", "TEST_SYSTEM": "FGF-R1 (Homo sapiens, UniProt P11362, C488A/C584S/L457V)", "VALUE_UNIT": "%", "inhibition at 0.1 µM": 20}
{"MOLECULE": "Cc1csc(NC(=O)c2c(C)oc3cc(Oc4ccnc5ccsc45)ccc23)n1", "TEST_SYSTEM": "FGF-R1 (Homo sapiens, UniProt P11362, C488A/C584S/L457V)", "VALUE_UNIT": "%", "inhibition at 0.1 µM": 7}
{"MOLECULE": "Cc1oc2cc(Oc3ccnc4ccsc34)ccc2c1C(=O)NCCc1cccc(C(F)(F)F)c1", "TEST_SYSTEM": "FGF-R1 (Homo sapiens, UniProt P11362, C488A/C584S/L457V)", "VALUE_UNIT": "%", "inhibition at 0.1 µM": 0}
{"MOLECULE": "Cc1oc2cc(Oc3ccnc4ccsc34)ccc2c1C(=O)Nc1cc(-c2ccco2)n[nH]1", "TEST_SYSTEM": "FGF-R1 (Homo sapiens, UniProt P11362, C488A/C584S/L457V)", "VALUE_UNIT": "%", "inhibition at 0.1 µM": 1}
{"MOLECULE": "Cc1oc2cc(Oc3ccnc4ccsc34)ccc2c1C(=O)Nc1ccc2ncsc2c1", "TEST_SYSTEM": "FGF-R1 (Homo sapiens, UniProt P11362, C488A/C584S/L457V)", "VALUE_UNIT": "%", "inhibition at 0.1 µM": 0}
{"MOLECULE": "Cc1oc2cc(Oc3ccnc4ccsc34)ccc2c1C(=O)Nc1cccc(-c2cc[nH]n2)c1", "TEST_SYSTEM": "FGF-R1 (Homo sapiens, UniProt P11362, C488A/C584S/L457V)", "VALUE_UNIT": "%", "inhibition at 0.1 µM": 0}
{"MOLECULE": "Cc1oc2cc(Oc3ccnc4ccsc34)ccc2c1C(=O)NCCCN1CCOCC1 [drawing 308]", "TEST_SYSTEM": "FGF-R1 (Homo sapiens, UniProt P11362, C488A/C584S/L457V)", "VALUE_UNIT": "%", "inhibition at 0.1 µM": 2}
{"MOLECULE": "Cc1oc2cc(Oc3ccnc4ccsc34)ccc2c1C(=O)Nc1cnc2ccccc2c1", "TEST_SYSTEM": "FGF-R1 (Homo sapiens, UniProt P11362, C488A/C584S/L457V)", "VALUE_UNIT": "%", "inhibition at 0.1 µM": 7}
{"MOLECULE": "Cc1oc2cc(Oc3ccnc4ccsc34)ccc2c1C(=O)Nc1nnc(C2CC2)s1", "TEST_SYSTEM": "FGF-R1 (Homo sapiens, UniProt P11362, C488A/C584S/L457V)", "VALUE_UNIT": "%", "inhibition at 0.1 µM": 4}
{"MOLECULE": "Cc1oc2cc(Oc3ccnc4ccsc34)ccc2c1C(=O)Nc1cc(C2CC2)nn1C", "TEST_SYSTEM": "FGF-R1 (Homo sapiens, UniProt P11362, C488A/C584S/L457V)", "VALUE_UNIT": "%", "inhibition at 0.1 µM": 3}
